Recorded DC50, one value per entry.
# EXPERIMENTAL_SYSTEM: BCR-ABL protein (Homo sapiens)
# Sequence (P00519 with tags, fused parts or gaps): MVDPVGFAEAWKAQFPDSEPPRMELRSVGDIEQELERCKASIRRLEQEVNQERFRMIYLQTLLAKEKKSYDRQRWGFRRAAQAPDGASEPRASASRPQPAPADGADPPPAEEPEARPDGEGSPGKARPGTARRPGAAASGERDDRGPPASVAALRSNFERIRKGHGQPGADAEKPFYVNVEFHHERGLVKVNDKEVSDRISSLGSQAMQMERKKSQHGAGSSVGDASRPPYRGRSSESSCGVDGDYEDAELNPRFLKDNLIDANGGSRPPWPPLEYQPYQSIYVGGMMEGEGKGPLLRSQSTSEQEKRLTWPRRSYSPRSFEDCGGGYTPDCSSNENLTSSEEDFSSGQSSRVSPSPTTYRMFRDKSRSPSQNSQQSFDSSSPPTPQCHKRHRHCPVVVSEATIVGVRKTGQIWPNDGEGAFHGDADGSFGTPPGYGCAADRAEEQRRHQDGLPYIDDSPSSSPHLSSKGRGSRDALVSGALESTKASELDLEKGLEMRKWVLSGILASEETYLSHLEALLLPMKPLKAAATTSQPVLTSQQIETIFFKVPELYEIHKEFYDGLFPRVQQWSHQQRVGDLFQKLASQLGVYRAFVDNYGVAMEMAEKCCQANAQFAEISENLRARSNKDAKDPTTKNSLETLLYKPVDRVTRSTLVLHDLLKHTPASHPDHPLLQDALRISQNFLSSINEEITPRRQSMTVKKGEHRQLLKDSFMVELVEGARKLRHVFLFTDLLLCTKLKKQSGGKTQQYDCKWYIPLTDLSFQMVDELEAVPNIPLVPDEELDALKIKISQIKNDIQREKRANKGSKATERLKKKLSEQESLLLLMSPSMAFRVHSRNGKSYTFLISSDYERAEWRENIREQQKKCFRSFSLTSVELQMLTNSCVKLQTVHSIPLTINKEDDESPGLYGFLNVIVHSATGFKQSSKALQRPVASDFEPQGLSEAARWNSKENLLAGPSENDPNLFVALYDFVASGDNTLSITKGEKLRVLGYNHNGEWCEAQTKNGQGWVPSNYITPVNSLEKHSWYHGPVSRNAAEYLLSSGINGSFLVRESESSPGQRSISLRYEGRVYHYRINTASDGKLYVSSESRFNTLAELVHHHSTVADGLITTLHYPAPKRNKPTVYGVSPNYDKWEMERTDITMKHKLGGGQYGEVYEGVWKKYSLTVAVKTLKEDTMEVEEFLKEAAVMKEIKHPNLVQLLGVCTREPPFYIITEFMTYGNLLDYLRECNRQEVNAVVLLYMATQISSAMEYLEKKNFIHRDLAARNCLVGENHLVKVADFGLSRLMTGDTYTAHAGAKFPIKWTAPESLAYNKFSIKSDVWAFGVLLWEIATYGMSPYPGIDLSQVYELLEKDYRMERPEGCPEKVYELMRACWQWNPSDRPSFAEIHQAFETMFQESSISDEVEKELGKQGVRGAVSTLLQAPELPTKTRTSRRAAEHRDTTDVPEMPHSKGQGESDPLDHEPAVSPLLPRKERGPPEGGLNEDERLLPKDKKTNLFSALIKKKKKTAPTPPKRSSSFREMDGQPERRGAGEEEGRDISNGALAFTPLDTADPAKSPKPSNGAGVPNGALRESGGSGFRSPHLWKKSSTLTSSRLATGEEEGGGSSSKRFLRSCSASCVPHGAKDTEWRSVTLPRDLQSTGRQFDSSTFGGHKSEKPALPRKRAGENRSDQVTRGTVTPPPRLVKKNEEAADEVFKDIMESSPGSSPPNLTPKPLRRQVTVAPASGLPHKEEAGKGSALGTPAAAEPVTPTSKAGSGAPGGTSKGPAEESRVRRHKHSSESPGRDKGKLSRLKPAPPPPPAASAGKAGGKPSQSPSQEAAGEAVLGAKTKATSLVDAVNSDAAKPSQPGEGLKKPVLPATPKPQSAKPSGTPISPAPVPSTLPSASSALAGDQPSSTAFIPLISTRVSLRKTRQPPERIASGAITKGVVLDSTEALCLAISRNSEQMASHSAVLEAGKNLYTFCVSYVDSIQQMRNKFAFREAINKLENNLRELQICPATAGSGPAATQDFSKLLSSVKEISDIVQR
# ASSAY: Western blot degradation of BCR-ABL in K562 cells
# Assay type: cell-based
# Design: Western blot was used to detect the expression of BCR-ABL and c-ABL protein in K562 cells; BCR (fusion partner, P11274); endogenous in cells; host or cells: K562; the other entry of the earlier key: BCR (P11274, Breakpoint cluster region protein)
# TEST_CONDITIONS: 16 hours, 1 nM-10 μM

Some solved entries appear below for comparison.
COMPOUND | DC50
Cc1nc(Nc2ncc(C(=O)Nc3c(C)cccc3Cl)s2)cc(N2CCN(C(=O)CCOCCOCCNc3cccc4c3C(=O)N(C3CCC(=O)NC3=O)C4=O)CC2)n1 (stereo not shown) | 1 to 10 nM
Cc1nc(Nc2ncc(C(=O)Nc3c(C)cccc3Cl)s2)cc(N2CCN(C(=O)CCC(=O)Nc3cccc4c3CN(C3CCC(=O)NC3=O)C4=O)CC2)n1 (stereo not shown) | 100 to 1000 nM
Cc1nc(Nc2ncc(C(=O)Nc3c(C)cccc3Cl)s2)cc(N2CCN(C(=O)CCCCCNc3cccc4c3C(=O)N(C3CCC(=O)NC3=O)C4=O)CC2)n1 (stereo not shown) | 1 to 10 nM

Now for the compound whose DC50 we want.
Give recorded DC50. Cc1nc(Nc2ncc(C(=O)Nc3c(C)cccc3Cl)s2)cc(N2CCN(C(=O)CCC(=O)N[C@H](C(=O)N3C[C@H](O)C[C@H]3C(=O)NCc3ccc(-c4scnc4C)cc3)C(C)(C)C)CC2)n1 100 to 1000 nM

The reported numbers originate from patent US11639343B2.
